# Measured Target: PI 4-kinase beta (Homo sapiens, UniProt Q9UBF8)
# Sequence (Q9UBF8 whole entry): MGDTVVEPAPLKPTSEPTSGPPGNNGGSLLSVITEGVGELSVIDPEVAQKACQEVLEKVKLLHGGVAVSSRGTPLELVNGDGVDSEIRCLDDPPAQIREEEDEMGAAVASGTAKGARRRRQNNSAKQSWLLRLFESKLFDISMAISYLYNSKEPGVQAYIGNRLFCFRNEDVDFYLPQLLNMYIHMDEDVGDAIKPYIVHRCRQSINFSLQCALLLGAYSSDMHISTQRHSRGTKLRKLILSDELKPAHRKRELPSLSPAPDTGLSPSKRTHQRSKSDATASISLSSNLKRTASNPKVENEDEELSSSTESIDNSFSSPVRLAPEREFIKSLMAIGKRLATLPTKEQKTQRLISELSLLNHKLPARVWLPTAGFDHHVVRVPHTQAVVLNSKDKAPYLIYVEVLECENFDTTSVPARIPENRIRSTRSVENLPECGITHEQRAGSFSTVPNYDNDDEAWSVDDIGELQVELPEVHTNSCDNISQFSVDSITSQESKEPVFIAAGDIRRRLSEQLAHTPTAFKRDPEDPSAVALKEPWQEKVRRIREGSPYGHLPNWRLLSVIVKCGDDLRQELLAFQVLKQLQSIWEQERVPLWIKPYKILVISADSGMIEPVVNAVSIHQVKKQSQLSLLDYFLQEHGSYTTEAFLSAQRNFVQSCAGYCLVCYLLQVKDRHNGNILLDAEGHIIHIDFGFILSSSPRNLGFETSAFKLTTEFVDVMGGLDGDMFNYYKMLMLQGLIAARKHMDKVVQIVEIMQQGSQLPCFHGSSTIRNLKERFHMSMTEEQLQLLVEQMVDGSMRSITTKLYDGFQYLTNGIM
# Assay Procedure: Kinase Glo Luminescent Kinase Assay (Kglo), assay D
# Assay type: biochemical
# Condition Details: Assay D PI4Kβ IC50 (μM)

Mol Smiles | Measured Target | Unit Symbol | IC50
Cc1ccc(S(=O)(=O)NC2CCOCC2)cc1-c1cnc(N)c(-n2cncn2)n1 | PI 4-kinase beta (Homo sapiens, UniProt Q9UBF8) | µM | 4.4

---

# Measured Target: PI 3-kinase delta (Homo sapiens)
# Sequence (O00329 whole entry): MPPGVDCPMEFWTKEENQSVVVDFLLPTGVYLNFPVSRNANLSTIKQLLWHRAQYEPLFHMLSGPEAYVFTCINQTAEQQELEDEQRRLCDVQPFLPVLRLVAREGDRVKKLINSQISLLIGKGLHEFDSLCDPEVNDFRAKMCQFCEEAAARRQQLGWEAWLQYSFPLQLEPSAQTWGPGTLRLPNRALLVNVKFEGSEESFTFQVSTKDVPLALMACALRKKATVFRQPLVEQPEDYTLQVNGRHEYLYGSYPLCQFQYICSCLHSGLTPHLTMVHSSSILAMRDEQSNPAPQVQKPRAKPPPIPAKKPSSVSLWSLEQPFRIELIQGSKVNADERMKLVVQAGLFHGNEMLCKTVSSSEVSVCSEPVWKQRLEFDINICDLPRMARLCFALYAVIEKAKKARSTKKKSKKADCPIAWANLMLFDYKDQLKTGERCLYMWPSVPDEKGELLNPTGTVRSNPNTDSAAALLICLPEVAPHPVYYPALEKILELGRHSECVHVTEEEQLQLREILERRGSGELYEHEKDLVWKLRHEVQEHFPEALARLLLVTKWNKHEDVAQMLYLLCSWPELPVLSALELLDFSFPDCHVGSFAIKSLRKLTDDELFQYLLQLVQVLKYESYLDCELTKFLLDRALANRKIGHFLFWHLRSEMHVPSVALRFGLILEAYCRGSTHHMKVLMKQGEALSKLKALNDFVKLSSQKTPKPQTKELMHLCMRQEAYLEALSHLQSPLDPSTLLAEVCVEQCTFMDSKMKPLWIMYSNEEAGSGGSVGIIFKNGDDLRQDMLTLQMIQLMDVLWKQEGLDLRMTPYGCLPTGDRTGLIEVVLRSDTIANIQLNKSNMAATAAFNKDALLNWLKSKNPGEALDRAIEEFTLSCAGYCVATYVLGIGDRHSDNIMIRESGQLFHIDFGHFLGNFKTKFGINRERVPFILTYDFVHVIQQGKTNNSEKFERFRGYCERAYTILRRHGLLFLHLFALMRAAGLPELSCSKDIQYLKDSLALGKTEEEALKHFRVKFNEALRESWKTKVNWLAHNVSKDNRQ
# Sequence (Q63787 whole entry partner): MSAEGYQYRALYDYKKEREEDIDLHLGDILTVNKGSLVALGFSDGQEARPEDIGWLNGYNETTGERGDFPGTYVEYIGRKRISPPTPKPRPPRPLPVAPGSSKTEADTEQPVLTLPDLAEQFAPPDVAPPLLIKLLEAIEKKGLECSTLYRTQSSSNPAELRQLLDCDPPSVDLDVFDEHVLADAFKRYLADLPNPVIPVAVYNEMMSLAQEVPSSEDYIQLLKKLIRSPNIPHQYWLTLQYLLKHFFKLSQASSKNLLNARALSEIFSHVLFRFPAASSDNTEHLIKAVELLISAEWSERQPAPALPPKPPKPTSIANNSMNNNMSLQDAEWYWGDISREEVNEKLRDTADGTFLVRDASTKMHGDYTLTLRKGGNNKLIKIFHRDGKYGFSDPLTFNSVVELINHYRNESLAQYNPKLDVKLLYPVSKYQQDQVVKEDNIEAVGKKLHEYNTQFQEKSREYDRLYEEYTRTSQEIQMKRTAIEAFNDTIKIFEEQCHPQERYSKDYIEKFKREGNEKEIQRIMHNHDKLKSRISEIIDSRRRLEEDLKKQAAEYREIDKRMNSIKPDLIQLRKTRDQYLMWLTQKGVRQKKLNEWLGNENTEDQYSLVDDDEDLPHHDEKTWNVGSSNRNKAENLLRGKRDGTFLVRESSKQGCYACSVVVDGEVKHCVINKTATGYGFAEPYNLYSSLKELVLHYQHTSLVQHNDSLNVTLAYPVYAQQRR
# Assay Procedure: Cellular assay J1, p-Akt (S473) in Rat-1 cells, Surefire format
# Format: cell-based
# Condition Details: non-asterisked data: version J1 (Surefire format), Rat-1 cells; read-out: Assay J PI3Kδ IC50
pIC50: −log10 of the molar value.
Parameter: pIC50. Scope: all listed entries.

Compound | Prefix Operator | pIC50
COc1ncccc1-c1nc(-c2cc(S(=O)(=O)NCCC(C)(C)O)ccc2C)cnc1N [Example 119.4] | < | 5.00
Cc1ccc(S(=O)(=O)NCC2(C)COC2)cc1-c1cnc(N)c(-n2cncn2)n1 [Example 29] | = | 5.18
Cc1ccc(S(=O)(=O)NCCC(C)(C)O)cc1-c1cnc(N)c(-c2cscn2)n1 [Example 108] | = | 6.39
CCN1CCC[C@H]1CNS(=O)(=O)c1ccc(C)c(-c2cnc(N)c(-c3cn(C)nc3C)n2)c1 [Example 128.1] | = | 5.79
Cc1ccc(S(=O)(=O)N[C@H]2CC[C@H](O)CC2)cc1-c1cnc(N)c(-c2cncnc2)n1 [Example 59] | = | 5.19
Cc1cn(-c2nc(-c3cc(S(=O)(=O)NCCCO)ccc3C)cnc2N)cn1 [Example 57] | < | 5.00
COCCCNS(=O)(=O)c1ccc(C)c(-c2cnc(N)c(-c3ccnc(C)c3)n2)c1 [Example 129.11] | = | 5.48
Cc1ccc(S(=O)(=O)NCC(C)(C)O)cc1-c1cnc(N)c(-c2cn(C)nn2)n1 [Example 81] | = | 5.39
Cc1ccc(S(=O)(=O)NCCC(C)(C)O)cc1-c1cnc(N)c(-n2cncn2)n1 [Example 64] | = | 5.92
Cc1ncn(-c2nc(-c3cc(S(=O)(=O)NCC(C)(C)O)ccc3C)cnc2N)n1 [Example 25] | = | 5.86
Cc1ccc(S(=O)(=O)NCCC(C)(C)O)cc1-c1cnc(N)c(-c2cnn(C)c2C)n1 [Example 119.19] | < | 5.00
Cc1ccc(S(=O)(=O)NOC(C)(C)C)cc1-c1cnc(N)c(-n2cncn2)n1 [Example 112.1] | = | 6.42
Cc1ccc(S(=O)(=O)NOCC(C)(C)O)cc1-c1cnc(N)c(-n2cncn2)n1 [Example 31] | = | 5.99
Cc1cc(Cl)c(S(=O)(=O)NCC(C)(C)O)cc1-c1cnc(N)c(-n2cncn2)n1 [Example 124] | = | 6.54
Cc1ccc(S(=O)(=O)NCCC(C)(C)O)cc1-c1cnc(N)c(-c2ccncc2F)n1 [Example 119.11] | = | 5.16
Cc1ccc(S(=O)(=O)NCC2(CO)CCCCC2)cc1-c1cnc(N)c(-n2cncn2)n1 [Example 127.52] | = | 5.96
Cc1ccc(S(=O)(=O)NCC2COCCN2C)cc1-c1cnc(N)c(-c2cn(C)nc2C)n1 (single isomer, unassigned) [Example 128.3b] | = | 5.42
Cc1ccc(S(=O)(=O)NCC2(CO)COC2)cc1-c1cnc(N)c(-n2cncn2)n1 [Example 35] | < | 5.00
Cc1ncc(-c2nc(-c3cc(S(=O)(=O)NCC(C)(C)CO)ccc3C)cnc2N)s1 [Example 8] | = | 6.43
Cc1ccc(S(=O)(=O)NCCC(C)(C)O)cc1-c1cnc(N)c(-c2csc(CN3CCOCC3)c2)n1 [Example 30] | = | 6.32
Cc1ccc(S(=O)(=O)N2CC(CO)C2)cc1-c1cnc(N)c(-n2cncn2)n1 [Example 127.45] | = | 5.14
Cc1ccc(S(=O)(=O)NC[C@@H]2COCCN2)cc1-c1cnc(N)c(-c2cn(C)nc2C)n1 [Example 128.6] | < | 5.00
Cc1cc(-c2nc(-c3cc(S(=O)(=O)N[C@H]4CC[C@H](O)CC4)ccc3C)cnc2N)on1 [Example 4] | = | 6.04
Cc1ccc(S(=O)(=O)NCCC(C)(C)O)cc1-c1cnc(N)c(-n2cnc(C(C)C)n2)n1 [Example 66] | = | 6.14
Cc1cc(-c2nc(-c3cc(S(=O)(=O)N[C@H]4CC[C@H](O)CC4)ccc3C)cnc2N)ccn1 [Example 135] | = | 5.03
Cc1ccc(S(=O)(=O)NOCC(C)(C)O)cc1-c1cnc(N)c(-c2cn(C)nc2C)n1 [Example 125] | = | 6.64
Cc1ccc(S(=O)(=O)NCCC(C)(C)O)cc1-c1cnc(N)c(-c2cnn(C(C)C)c2)n1 [Example 119.31] | = | 5.91
Cc1ccc(S(=O)(=O)NCCC(C)(C)O)cc1-c1cnc(N)c(-c2cccnc2OC(C)C)n1 [Reference example 119.12] | < | 5.00
Cc1cc(-c2nc(-c3cc(S(=O)(=O)NC4CCC(C)(O)CC4)ccc3C)cnc2N)ccn1 (stereo not shown) [Example 129.19] | = | 5.36
Cc1ncc(S(=O)(=O)NCC(C)(C)O)cc1-c1cnc(N)c(-n2cncn2)n1 [Example 53] | < | 5.00
CCn1ncc(-c2nc(-c3cc(S(=O)(=O)NCC(C)(C)O)ccc3C)cnc2N)n1 [Example 82] | = | 6.21

Value source: patent US10004732B2
